Value source: the supplement of paper PMC9112550

System: Escherichia coli TOP10
Assay: shrunken log2 fold change of peptide-encoding DNA abundance (4.5 h post-induction vs induction); higher = less antimicrobial activity (less host growth inhibition)
Conditions: time post-induction: 4.5 h; library: site-saturation at positions 5, 18, 19, 20

query-sequence: RRIRFRPPRLPRPRPRPIQQPRP
shrunken log2 fold change: 0.056
//
query-sequence: RRIRSRPPRLPRPRPRPHFSPRP
shrunken log2 fold change: -0.112
//
query-sequence: RRIRVRPPRLPRPRPRPRDFPRP
shrunken log2 fold change: 0.0486
//
query-sequence: RRIRWRPPRLPRPRPRPWWMPRP
shrunken log2 fold change: 0.388
//
query-sequence: RRIRLRPPRLPRPRPRPGYMPRP
shrunken log2 fold change: -0.459
//
query-sequence: RRIRQRPPRLPRPRPRPVEQPRP
shrunken log2 fold change: 0.0359
//
query-sequence: RRIRLRPPRLPRPRPRPCEIPRP
shrunken log2 fold change: 0.0237
//
query-sequence: RRIRWRPPRLPRPRPRPKKGPRP
shrunken log2 fold change: 0.22
//
query-sequence: RRIRERPPRLPRPRPRPMCDPRP
shrunken log2 fold change: -0.212
//
query-sequence: RRIRVRPPRLPRPRPRPIKVPRP
shrunken log2 fold change: -0.167

----------
Entries and their measured shrunken log2 fold change follow.
System: Escherichia coli TOP10
Assay: shrunken log2 fold change of peptide-encoding DNA abundance (4.5 h post-induction vs induction); higher = less antimicrobial activity (less host growth inhibition)
Conditions: time post-induction: 4.5 h; library: site-saturation at positions 5, 18, 19, 20

query-sequence: RRIRLRPPRLPRPRPRPIIFPRP
shrunken log2 fold change: -0.288

query-sequence: RRIRLRPPRLPRPRPRPPMSPRP
shrunken log2 fold change: 0.0743

query-sequence: RRIRRRPPRLPRPRPRPEPWPRP
shrunken log2 fold change: 0.538

query-sequence: RRIRVRPPRLPRPRPRPLELPRP
shrunken log2 fold change: -0.103

----------
Test system: Escherichia coli TOP10;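 note: peptides expressed intracellularly from a pBAD plasmid library in pooled LB shake-flask culture, induced with 0.3% L-arabinose, DNA abundance read by NGS, three biological replicates, DESeq2 with apeglm shrinkage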
Experiment: shrunken log2 fold change of peptide-encoding DNA abundance (4.5 h post-induction vs induction); higher = less antimicrobial activity (less host growth inhibition)
Settings: time post-induction: 4.5 h; library: site-saturation at positions 5, 18, 19, 20

query-sequence: RRIRRRPPRLPRPRPRPEVEPRP
shrunken log2 fold change: 0.0165

query-sequence: RRIRGRPPRLPRPRPRPCMIPRP
shrunken log2 fold change: 0.235

query-sequence: RRIRHRPPRLPRPRPRPYKGPRP
shrunken log2 fold change: -0.33

query-sequence: RRIRMRPPRLPRPRPRPFCLPRP
shrunken log2 fold change: -0.15

query-sequence: RRIRNRPPRLPRPRPRPMMFPRP
shrunken log2 fold change: -0.0478

query-sequence: RRIRTRPPRLPRPRPRPRYEPRP
shrunken log2 fold change: -0.0806

query-sequence: RRIRPRPPRLPRPRPRPKEHPRP
shrunken log2 fold change: -0.202

query-sequence: RRIRRRPPRLPRPRPRPKRMPRP
shrunken log2 fold change: 0.514

query-sequence: RRIRLRPPRLPRPRPRPAVRPRP
shrunken log2 fold change: 0.0913

query-sequence: RRIRRRPPRLPRPRPRPREAPRP
shrunken log2 fold change: 0.254

query-sequence: RRIRIRPPRLPRPRPRPQIRPRP
shrunken log2 fold change: -0.64

query-sequence: RRIRMRPPRLPRPRPRPDQHPRP
shrunken log2 fold change: 0.237

query-sequence: RRIRTRPPRLPRPRPRPGHGPRP
shrunken log2 fold change: 0.138

query-sequence: RRIRPRPPRLPRPRPRPHIFPRP
shrunken log2 fold change: -0.0487

query-sequence: RRIRQRPPRLPRPRPRPKNMPRP
shrunken log2 fold change: -0.646
